All figures here come from the NIST ThermoML archive (doi:10.1016/j.jct.2004.11.020).

- MEASUREMENT_CONTEXT: 308.15 K; 101.33 kPa; Liquid
± gives the expanded uncertainty stated by the source.

- COMPOUND: "CC(O)CCO (stereo not given)"
  viscosity: "54.24 ± 1.2 mPa·s"
- COMPOUND: "CC(O)C(C)O (stereo not given)"
  viscosity: "51.38 ± 1.1 mPa·s"
- COMPOUND: "OCCCCO"
  viscosity: "47.38 ± 1.4 mPa·s"
- COMPOUND: "O=C1CCCN1"
  viscosity: "8.922 ± 0.23 mPa·s"
- COMPOUND: "CCC(O)CO (stereo not given)"
  viscosity: "30.29 ± 0.85 mPa·s"

###

- MEASUREMENT_CONTEXT: 308.15 K; 101.33 kPa; Liquid
± gives the expanded uncertainty stated by the source.
// reported mass density per item

- COMPOUND: "CC(O)C(C)O (stereo not given)"
  mass density: "990.72 ± 1 kg/m3"
- COMPOUND: "OCCCCO"
  mass density: "1003.95 ± 0.54 kg/m3"
- COMPOUND: "CC(O)CCO (stereo not given)"
  mass density: "991.28 ± 0.53 kg/m3"
- COMPOUND: "O=C1CCCN1"
  mass density: "1097.14 ± 0.66 kg/m3"
- COMPOUND: "CCC(O)CO (stereo not given)"
  mass density: "988.25 ± 1 kg/m3"

###

- MEASUREMENT_CONTEXT: 308.15 K; 101.33 kPa; Liquid; Pulse-echo method

- MOLECULE: "OCCCCO"
  QUANTITY_UNIT: "m/s"
  speed of sound: 1577.8
- MOLECULE: "CC(O)CCO (stereo not given)"
  QUANTITY_UNIT: "m/s"
  speed of sound: 1496
- MOLECULE: "CCC(O)CO (stereo not given)"
  QUANTITY_UNIT: "m/s"
  speed of sound: 1422.6
- MOLECULE: "CC(O)C(C)O (stereo not given)"
  QUANTITY_UNIT: "m/s"
  speed of sound: 1456.6
- MOLECULE: "O=C1CCCN1"
  QUANTITY_UNIT: "m/s"
  speed of sound: 1600
